Collected Potency relative to Comparative Example 1 (higher = more potent) values appear next to each entry.
- target.entity: recombinant human MGAT2 enzyme (Homo sapiens)
- Construct: made in house; host or cells: CHO-K1 (Jump-In CHO-K1 Kit, Life Technologies); microsomal fraction used as the enzyme solution
- assay.explanation: Test for human MGAT2 activity inhibitory action (14C-oleoyl CoA, recombinant enzyme microsomes)
- Type: biochemical
- Parameters: key: % inhibition = {1−(C−B)/(A−B)}×100, B = 10 μM Comparative Example 1
- condition.label: Table 5; relative to Comparative Example 1 measured in the same run
Where a name gives a salt, the structure may show the parent alone.
When you answer, write just the number.

input: Return value of Potency relative to Comparative Example 1 (higher = more potent) for input O=C(CCNCc1nc(Cc2ccccc2)no1)N1CCc2nc(SC3CCC3)n(-c3ccccc3)c(=O)c2C1 [Example 34, trifluoroacetate] , no commentary.
output: 47

---

Measured Potency relative to Comparative Example 1 (higher = more potent), listed per entry for reference.
- target.entity: recombinant human MGAT2 enzyme (Homo sapiens)
- Construct: made in house; host or cells: CHO-K1 (Jump-In CHO-K1 Kit, Life Technologies); microsomal fraction used as the enzyme solution
- assay.explanation: Test for human MGAT2 activity inhibitory action (14C-oleoyl CoA, recombinant enzyme microsomes)
- Type: biochemical
- Design: key: % inhibition = {1−(C−B)/(A−B)}×100, B = 10 μM Comparative Example 1
- condition.label: Table 5; relative to Comparative Example 1 measured in the same run
Structures can show the parent of a compound that is named as a salt.

[[record]]
molecule = "O=C(CCNCCCCOc1ccc(F)cc1)N1CCc2nc(SC3CCC3)n(-c3ccccc3)c(=O)c2C1 [Example 48, trifluoroacetate]"
observed_value = ">184"

[[record]]
molecule = "O=C(CCNCC(O)COc1ccc(F)cc1)N1CCc2nc(SC3CCC3)n(-c3ccccc3)c(=O)c2C1 (stereo not drawn) [Example 44, trifluoroacetate]"
observed_value = 135


Shift focus to the following entry.
input: Tell me measured Potency relative to Comparative Example 1 (higher = more potent) for O=C(CCNCCCCCOc1ccc(F)cc1)N1CCc2nc(SC3CCC3)n(-c3ccccc3)c(=O)c2C1 [Example 49, trifluoroacetate] please.
output: >184

---

Quick list: Potency relative to Comparative Example 1 (higher = more potent) per entry.
- target.entity: recombinant human MGAT2 enzyme (Homo sapiens, UniProt Q3SYC2)
- Construct: made in house; host or cells: CHO-K1 (Jump-In CHO-K1 Kit, Life Technologies); microsomal fraction used as the enzyme solution
- Sequence (Q3SYC2 whole entry): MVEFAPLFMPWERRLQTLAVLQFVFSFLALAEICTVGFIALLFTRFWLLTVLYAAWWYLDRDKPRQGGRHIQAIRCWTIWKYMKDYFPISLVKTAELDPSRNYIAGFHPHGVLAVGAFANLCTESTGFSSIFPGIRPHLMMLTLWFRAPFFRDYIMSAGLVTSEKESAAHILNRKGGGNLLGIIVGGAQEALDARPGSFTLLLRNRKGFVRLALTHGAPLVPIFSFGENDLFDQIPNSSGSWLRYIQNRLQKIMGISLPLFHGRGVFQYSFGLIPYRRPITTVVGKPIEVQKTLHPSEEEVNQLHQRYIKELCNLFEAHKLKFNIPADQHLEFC
- assay.explanation: Test for human MGAT2 activity inhibitory action (14C-oleoyl CoA, recombinant enzyme microsomes)
- Format: biochemical
- Parameters: key: % inhibition = {1−(C−B)/(A−B)}×100, B = 10 μM Comparative Example 1
- condition.label: Table 5; relative to Comparative Example 1 measured in the same run
Structures can show the parent of a compound that is named as a salt.

[[record]]
molecule = "Cc1cc2cccc(CNCCC(=O)N3CCc4nc(SC5CCC5)n(-c5ccccc5)c(=O)c4C3)c2o1 [Example 26, trifluoroacetate]"
observed_value = 196


input: Report measured Potency relative to Comparative Example 1 (higher = more potent); entry is O=C(CCNCC(O)c1ccccc1)N1CCc2nc(SC3CCC3)n(-c3ccccc3)c(=O)c2C1 (centres unmarked) [Example 29, trifluoroacetate]
output: 138

input: Could you please provide reported Potency relative to Comparative Example 1 (higher = more potent) for O=C(CCNCc1c(F)cccc1F)N1CCc2nc(SC3CCC3)n(-c3ccccc3)c(=O)c2C1 [Example 35, trifluoroacetate] ? Thanks!
output: 130

input: Please give measured Potency relative to Comparative Example 1 (higher = more potent) of the following entry: CN(C)c1ccc(CNCCC(=O)N2CCc3nc(SC4CCC4)n(-c4ccccc4)c(=O)c3C2)cc1 [Example 31, trifluoroacetate]
output: 130

input: # return recorded Potency relative to Comparative Example 1 (higher = more potent) for entry O=C(CNCCCCCNc1ccc(C(F)(F)F)cc1)N1CCc2nc(SC3CCC3)n(-c3ccccc3)c(=O)c2C1 [Example 55, trifluoroacetate]
output: >207
